system: THRa homodimer (NR concentration 90 nM); assay: PBM binding z-score (relative to random genomic background probes); higher = stronger binding; sequences stand for … in GC…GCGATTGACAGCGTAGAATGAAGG
Readout type: PBM binding z-score
Answer with the value's number alone.

Examples from the recorded data:
>  <Ordered residues>
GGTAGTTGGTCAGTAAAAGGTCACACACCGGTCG

>  <Measurement>
2.3

$$$$
>  <Ordered residues>
TCTAGTAGGTTAGGGGCATTCAGAATGGCGTCGA

>  <Measurement>
0.797

$$$$
>  <Ordered residues>
GGAACGAGGGCGAAGTTGATAGCATCTGTCGACG

>  <Measurement>
-0.526

$$$$

Lookup: # get_value(readout='PBM binding z-score', item= `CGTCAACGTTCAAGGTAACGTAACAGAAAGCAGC` )
Found: 0.849

Lookup: Now consider `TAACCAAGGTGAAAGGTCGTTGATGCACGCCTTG` and answer again.
Found: 0.878

Lookup: Now consider `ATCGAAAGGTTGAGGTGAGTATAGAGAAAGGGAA` and answer again.
Found: 1.27

Lookup: Now consider `ATCTCTATGTAAAGATAGTTCAGTGAATGCAAAT` and answer again.
Found: -0.195

Lookup: Now consider `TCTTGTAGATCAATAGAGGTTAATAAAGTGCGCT` and answer again.
Found: -0.525

Lookup: Now consider `TAGACTAGGTCATGCGGGCCAGTATAGTGTCGGC` and answer again.
Found: 0.705

Lookup: Now consider `TGAAGGAGGTTATAAGATCAGGGAACGTTGCAAA` and answer again.
Found: 0.0287

Lookup: Now consider `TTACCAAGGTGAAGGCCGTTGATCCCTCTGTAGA` and answer again.
Found: 0.252

Lookup: Now consider `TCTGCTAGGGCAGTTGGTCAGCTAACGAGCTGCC` and answer again.
Found: -0.968

====

sequences and their reported PBM binding z-score
tested on: FXR:RXRa (NR concentration 270 nM, RXRa partner concentration 90 nM); experiment: PBM binding z-score (relative to random genomic background probes); higher = stronger binding; sequences stand for … in GC…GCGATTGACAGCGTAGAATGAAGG
Answer with the value's number alone.

Examples from the recorded data:
>  <Ordered residues>
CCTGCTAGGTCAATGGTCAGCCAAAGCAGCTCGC

>  <PBM binding z-score>
2.77

$$$$
>  <Ordered residues>
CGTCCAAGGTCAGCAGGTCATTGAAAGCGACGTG

>  <PBM binding z-score>
6.58

$$$$
>  <Ordered residues>
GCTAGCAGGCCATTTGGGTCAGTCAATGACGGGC

>  <PBM binding z-score>
-0.0631

$$$$

Now for another entry.
Lookup: Report PBM binding z-score for `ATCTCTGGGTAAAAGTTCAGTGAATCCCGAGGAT` tested on FXR:RXRa (NR concentration 270 nM, RXRa partner concentration 90 nM).
Found: 0.844

====

system: RARa homodimer (NR concentration 270 nM); experiment: PBM binding z-score (relative to random genomic background probes); higher = stronger binding; sequences stand for … in GC…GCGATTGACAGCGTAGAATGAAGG
Readout type: PBM binding z-score
Answer with the value's number alone.

Lookup: # get_value(readout='PBM binding z-score', item= `TCTTGTAGATAAAAGGTTAAGAAAGCCGAAGCCT` )
Found: 0.655

Lookup: Now consider `CGTCAAAGTTCAACTAAGGTATCGTAAAGCACGC` and answer again.
Found: 2.1

Lookup: Now consider `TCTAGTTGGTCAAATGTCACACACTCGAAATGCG` and answer again.
Found: 1.52

Lookup: Now consider `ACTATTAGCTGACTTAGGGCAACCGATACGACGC` and answer again.
Found: 1.14

Lookup: Now consider `TAGCCTAGGTCATGCGGGCCAGTATTGTGTCGGC` and answer again.
Found: -1.27
